Each item that follows carries a reported IC50.
- target.or.test.system: SARS-CoV-2 PLpro (Severe acute respiratory syndrome coronavirus 2)

# annotated cases, reported IC50 shown
* Cc1ccc(NC(=O)CCOCCOCCOCCOCCNc2cccc3c2C(=O)N(C2CCC(=O)NC2=O)C3=O)cc1C(=O)N[C@H](C)c1cccc2ccccc12 (stereo partly shown) | 10 to 25 µM
* C[C@H](c1cccc2ccccc12)N1CCC(C(=O)NCc2cc(F)cc(NC(=O)N3CCN(CCCCNC(=O)COc4ccc(N5CCC(=O)NC5=O)cc4)CC3)c2)CC1 | < 10 µM

Now let's try a different one.
**Q:** Give IC50 only, for C[C@H](c1cccc2ccccc12)N1CCC(C(=O)NCc2cc(F)cc(NC(=O)N3CCN(CCOCCOCCC(=O)N4CCN(c5ccc(C6CCC(=O)NC6=O)cc5)CC4)CC3)c2)CC1 (stereo partly shown) , using SARS-CoV-2 PLpro (Severe acute respiratory syndrome coronavirus 2) data.
**A:** < 10 µM
